# Target Of Assay: human cathepsin B (Homo sapiens, UniProt P07858)
# Test Method Notes: Inhibition of peptidyl-dipeptidase activity of cathepsin B, substrate Abz-Gly-Ile-Val-Arg-Ala-Lys(Dnp)-OH
# Format: biochemical
# Parameters: made in house
# Run Conditions: pH 5.5, [S] = Km, read-out: IC50, peptidyl-peptidase activity of cathepsin B
Readout Kind: IC50 (µM)

I. O=C(/C=C/c1ccc(O)c(O)c1)O[C@@H]1C[C@](O)(C(=O)O)C[C@@H](O)[C@H]1O
II. O=C(/C=C/c1ccc(O)c(O)c1)OCCc1ccccc1
Request: Identify the entry with the larger IC50. Options: I and II Write the label of whichever entry you select.
Result: I
(I: 360 µM, II: 100 µM)

Origin of values: paper PMC7824550
